- Test system: MCF7 breast
- test details: NCI-60 one-dose screen, 48 h (100 = growth as untreated, 0 = no growth, -100 = all killed)
- run parameters: 10 µM unless noted
Compounds without any hit were thinned out: in the full panel of roughly 83,000, 20% have a hit.
So I've got a bunch of molecules here, and I need their growth values.
One number for each entry, in %.

Worked cases, growth given:
>>> print(df.to_string())
                               smiles_entry  parameter_measured  value_reported
0                      O=C(O)CN1C(=O)CCC1=O              growth              92
1  Cc1cc(NCCCCNc2ccnc3cc(Cl)ccc23)nc(Nc2ccc(C(=O)N3CCCC3)cc2)n1              growth            12.7

# batch size: 3; output growth per entry
1. COc1ccccc1NC(=O)N/C(N)=N/c1nc2ccccc2s1
2. C=C(C)[C@@H]1CC[C@]2(C(=O)NC3CCCCC3)CC[C@]3(C)[C@H](CC[C@@H]4[C@@]5(C)CCC(=O)C(C)(C)[C@@H]5CC[C@]43C)[C@@H]12
3. O=C(COc1ccc(/C=C2\Oc3ccccc3C2=O)cc1)Nc1nc2c(s1)CCCC2

Result:
20.3
85.1
82.5

----------
- Tested on: NCI/ADR-RES ovarian
- test details: NCI-60 one-dose screen, 48 h (100 = growth as untreated, 0 = no growth, -100 = all killed)
- run parameters: 10 µM unless noted
The panel holds about 83,000 compounds, 20% with a hit somewhere; the sample as a whole holds those more often.
parameter measured: growth (%)
One number for each entry, in %.

>>> df
                                   molecule  value_reported
0  CCN1CCN(c2nc(C)cc(NCc3cc(Nc4ccnc5cc(Cl)ccc45)ccc3F)n2)CC1            24.6
1  N#C/C(=C\c1ccc2c(c1)OCO2)n1nnc2cc(F)c(F)cc21            27.4
2      O=C(O)c1ccc2c(c1Cl)C(=O)c1ccccc1C2=O            97.5
3  COC(=O)c1ccc(C2Nc3ccc(S(=O)(=O)Nc4ccc(C)c(C)c4)cc3C3OCCC23)cc1 (stereo not given)            88.5
4        Cn1cc2c(c1)-c1nc(Nc3ccccc3)ncc1CC2            71.6

# batch size: 5; output growth per entry
1. COC(=O)CCC1=C(C)C2=NC1=CC1=NC(=CC3=NC(=Cc4[nH]c(/c(=C(/C)O)c4C)=C2)C(C(C)=O)=C3C)C(C)=C1CCC(=O)OC
2. CCCCCS(=O)(=O)Nc1ccc(C(=O)O)cc1
3. CC(CCc1ccc(Cl)c(Cl)c1)NCc1ccc(C(C)(C)C)cc1 (stereo not given)
4. Fc1c[c-]c(-c2ccccn2)c(F)c1.[CH3-].[Pt+2].c1ccc(P(C[PH+](c2ccccc2)c2ccccc2)c2ccccc2)cc1
5. Cc1cc(NCc2cc(Nc3ccnc4cc(Cl)ccc34)ccc2F)nc(N2CCSCC2)n1

Result:
1: 103; 2: 102; 3: 86.3; 4: 49.8; 5: 15.7

----------
- System: SK-MEL-28 melanoma
- test details: NCI-60 one-dose screen, 48 h
- run parameters: 10 µM unless noted
The panel holds about 83,000 compounds, 20% with a hit somewhere; the sample as a whole holds those more often. Calls of active or inactive are those of the source. Rule for the calls: active = growth percent below 10; inactive = the rest.
Outcomes you can answer with include only these: true (1) for active, false (0) for inactive

Some solved entries appear below for comparison.
compound	cat
O=C(NCCCNc1cc(-c2cn(-c3ccccc3)nc2-c2cccc(O)c2)ccn1)c1ccc(F)cc1	true (1)
CC1(C)CC[C@]2(C(=O)N3CCOCC3)CC[C@]3(C)C(=CC[C@@H]4[C@@]5(C)CC[C@H](OC(=O)c6cccnc6)C(C)(C)[C@@H]5CC[C@]43C)[C@@H]2C1	false (0)
Nc1cc2c3c(cccc3c1)C(=O)N(CCN1CCCC1)C2=O	false (0)

Q: Dear all, I need the recorded test outcome for COc1cccc2c1C(=O)c1c(O)c3c(c(O)c1C2=O)CC(O)(/C(C)=N/NC(=O)CCCCC(=O)N/N=C(\C)C1(O)Cc2c(O)c4c(c(O)c2C(OC2CC(N)C(O)C(C)O2)C1)C(=O)c1c(OC)cccc1C4=O)CC3OC1CC(N)C(O)C(C)O1 (stereo unspecified) , thank you.
Result: true (1)

Q: Dear all, I need the recorded test outcome for `O=C1/C(=C/c2ccc(Br)cc2)C=C(c2ccccc2)N1CCc1ccccc1` , thank you.
Result: false (0)

Q: Dear all, I need the recorded test outcome for `C[C@@H]1N=C(c2ccc3ccccc3n2)Nc2nc3ccccn3c2C1=O` , thank you.
Result: false (0)

Q: Dear all, I need the recorded test outcome for `O=S(=O)(NCCCNc1cc(-c2c(-c3cccc(O)c3)nc3sccn23)ccn1)c1cccc(Cl)c1` , thank you.
Result: false (0)
